Target: Tumor necrosis factor receptor superfamily member 10B (Homo sapiens)
Test: TRAIL sensitizers in caspase-8 expressing neuroblastoma cells, dose response, NB7 cells plus caspase-8, luminescence, panel (AID 652002)
Details: NB7 neuroblastoma +caspase-8, TRAIL sensitization, luminescence viability, NB7+Caspase-8, with TRAIL, run 2; at 12.5 µM (top of the series)
Listed here: items and their measured activity, % sensitization.
Respond numerically; units are % and should not be typed.

The cases that follow already have their activity, % sensitization on record.
Cc1onc(-c2c(Cl)cccc2Cl)c1C(=O)ONC(=O)c1ccccc1 | -5.77
CCOc1ccc(-c2cc(C(=O)N3CCC(C)CC3)c3ccccc3n2)cc1 | 31.6
CC(C)(C)OC(=O)[C@H](Cc1ccccc1)NC(=O)c1[nH]cnc1C(=O)Nc1ccccc1F | -4.6
Cc1ccc(NC(=O)CSc2nc3ccc(Nc4nc(N5CCOCC5)nc(N5CCOCC5)n4)cc3s2)cc1 | -11.3
CCOc1ccc(NC(=O)c2ccco2)cc1 | 43.3

activity, % sensitization in this record for `C(=C\c1ccco1)/c1nc2ccccc2[nH]1` : 5.08

activity, % sensitization in this record for O=C1CCCCC1Sc1nnc(-c2ccc3c(c2)OCO3)o1 (stereo unspecified) : 16.8

activity, % sensitization in this record for `CCN(CC)c1ccc(/C=N/NC(=O)c2ccco2)cc1` : 39.3

activity, % sensitization in this record for `CSc1ccc(/C=C/c2ccc3cccc(O)c3n2)cc1` : 41.1

activity, % sensitization in this record for `COc1cc(SC#N)ccc1N=Cc1c(C)[nH]n(-c2ccc(Cl)cc2)c1=O` : -11.6

activity, % sensitization in this record for `CCOc1ccc(-c2nnc(-c3ccccc3)o2)cc1` : 39.8

----------
Listed here: items and their measured activation (fluorescence interference).
Experiment: Rh110 fluorescence interference by putative Apaf-1 inhibitors, confirmation, artefact control for Apaf-1 inhibitor project, biochemical, 20 µM (AID 504615)
Conditions: quenched caspase reaction, at 20 µM, stronger effect = higher value
This is one part of the list.
Respond numerically; units are % and should not be typed.

The cases that follow already have their activation (fluorescence interference) on record.
Clc1ccc(C2=CSC3=Nc4cccc5cccc(c45)N23)cc1 | -1.7
CC(=O)N(C1=C(Cl)C(=O)c2ccccc2C1=O)c1ccc(C(=O)O)cc1 | 9.87
CCOC(=O)C1CCN(C(=O)c2cccc(S(=O)(=O)N(CC)c3ccccc3)c2)CC1 | 5.38
CCOc1c(Br)cc(/C=C2\C(=O)N(CCC#N)N=C2C)cc1OC | 1.73
Cc1ccc(N=C2NC(=O)/C(=C/C=C/c3ccco3)S2)cc1C | 20.6

activation (fluorescence interference) in this record for `Oc1ccc(N=Cc2c(O)ccc3ccccc23)cc1` : 0.51

activation (fluorescence interference) in this record for `O=C1NNC(c2ccccc2)=N/C1=C\c1ccc(Cl)cc1` : 7.08

activation (fluorescence interference) in this record for `O=C(CN1CCN(S(=O)(=O)c2ccc3ccccc3c2)CC1)NC(=O)NC1CCCCC1` : 20

activation (fluorescence interference) in this record for `O=C(CCNS(=O)(=O)c1ccccc1)NCCSc1ccc(Br)cc1` : 5.12

activation (fluorescence interference) in this record for `Cc1ccc2nc(N3CCN(C(=O)c4ccco4)CC3)sc2c1` : -1.75

activation (fluorescence interference) in this record for Cc1cc2oc3ccc(NCCC4CCCN4C)cc3c(=O)c2cc1C (stereo not drawn) : 4.87

activation (fluorescence interference) in this record for `CCCC[C@@H]1CN=C(N)N1CCc1cc(C(F)(F)F)cc(C(F)(F)F)c1` : 3.05

activation (fluorescence interference) in this record for `COc1ccc2sc(-c3ccccc3OC)c(-c3ccc(OCCN4CCCC4)cc3)c2c1` : 6.49

activation (fluorescence interference) in this record for `CCCCCCCCCCOC(=O)Cn1c(COc2cccc(OC)c2)[n+](C)c2ccccc21` : 23

----------
Listed here: items and their measured inhibition.
Experiment: inhibitors of PAF-induced NFkB signaling in CF airway cells, dose response, cell-based, uHTS hits, panel, cytotoxicity readout (AID 624344)
Conditions: CF bronchial epithelial cells, PAF-induced NFkB reporter inhibition, with PAF, run 2; at 79 µM (top of the series) unless noted
Respond numerically; units are % and should not be typed.

The cases that follow already have their inhibition on record.
O=C(Nc1ccccc1)c1cc2ccccc2c(=O)s1 | 85.2
COc1ccc(-c2[nH]ncc2-c2ccc3c(c2)OCCO3)c(O)c1 | 114
CC1(C)CC(=O)C=C(NC2=CC3OC(c4ccccc4)OCC3OC2=O)C1 (stereo not drawn) | 114

inhibition in this record for C=C1C(=O)[C@]23C[C@H]1CCC2[C@]1(C)C(=O)CC[C@@](C)(C(=O)O)C1C[C@@H]3O (stereo partly drawn) : 89.8

inhibition in this record for NC(=O)c1nsc(C(=O)N(c2ccccc2F)C(C(=O)NCc2ccc(F)cc2)c2ccc(O)cc2)c1N (stereo not drawn) : 98.8

inhibition in this record for `Nc1nccc(-c2ccc(-n3cnc4ccccc43)cc2)n1` : 108

----------
Test: caspase-8 TRAIL sensitization, hit retest, confirmation, cell-based, NB7+caspase-8, with/without TRAIL, luminescence panel (AID 651596)
Details: NB7 neuroblastoma + caspase-8, without TRAIL, luminescence viability, without TRAIL, mean of runs, at 10 µM
Would you mind classing the entries by activity? Ranges: bucket 1 (below 50%), bucket 2 (50% to below 70%), bucket 3 (70% or more)

Past entries and their recorded results:
O=C(Nc1cc2ccccc2oc1=O)c1ccccc1 | bucket 2
CC(C)CC(/C(O)=C(\C#N)c1nc2ccccc2[nH]1)N1C(=O)c2ccccc2C1=O (stereo not given) | bucket 2
CCOC(=O)c1sc(NC(=O)Nc2ccc(F)cc2)nc1C | bucket 1
CCCCCCCC(=O)Nc1ccc(C(=O)N/N=C/c2cccc([N+](=O)[O-])c2)cc1 | bucket 3
O=C(/C=C/[C@H]1O[C@@H](n2cnc3c(NC(=O)c4ccccc4)ncnc32)[C@H](O)[C@@H]1O)NCC1CCCO1 (stereo not given in full) | bucket 1

## Task Which bin, given its activity, does CSc1ccc(C2NC(=O)c3ccccc3N2)cc1 (stereo not given) occupy?
## Result bucket 1

## Task Which bin, given its activity, does CNS(=O)(=O)c1cccc(C(=O)OCC(=O)c2cc(C)n(CC3CCCO3)c2C)c1 (stereo not given) occupy?
## Result bucket 2

## Task Which bin, given its activity, does `Cc1cc(C)cc(NC(=O)/C(C#N)=C/c2cn(CC(=O)NCc3ccco3)c3ccccc23)c1` occupy?
## Result bucket 3

## Task Which bin, given its activity, does `COc1ccc(N2Cc3ccccc3C2=O)cc1` occupy?
## Result bucket 2

## Task Which bin, given its activity, does `CCOc1ccc2nc(NC(=O)CN3CCC(n4nnc5cc(C(F)(F)F)ccc54)CC3)sc2c1` occupy?
## Result bucket 2

----------
Assay: inhibition of Brca1/Bard1 split-luciferase complementation, confirmation, counter-screen for Mdm2/MdmX interaction inhibitor project, luminescence, single concentration (AID 504668)
Conditions: Brca1/Bard1 bimolecular luciferase complementation counterscreen, at 8 µM, stronger effect = higher value
quantityKind: inhibition (%)
Respond numerically; units are % and should not be typed.

inhibition in this record for `COc1ccc([C@@H]2[C@@H]3C(=O)N(C(C)(C)C)C(=O)[C@@H]3[C@]3(Cc4ccc(Cl)cc4)C(=O)N(c4ccc(Br)cc4)C(=O)N23)cc1` : 26.6

inhibition in this record for `CCCN(CCC)c1ncnc2nc[nH]c12` : 34.6

inhibition in this record for `Nc1ccc(C(=O)OCc2nc3cc4ccccc4cc3[nH]2)cc1` : 34.5

inhibition in this record for `COc1ccc(-c2csc(NC(=S)NC(=O)c3ccco3)n2)cc1Br` : 23.1

inhibition in this record for OC(CNCc1ccc(-c2ccccc2)cc1)c1ccccc1 (stereo not given) : 26.9

----------
Experiment: caspase-8 TRAIL sensitization, hit retest, confirmation, cell-based, NB7+caspase-8, with/without TRAIL, luminescence panel (AID 651596)
Conditions: NB7 neuroblastoma + caspase-8, without TRAIL, luminescence viability, without TRAIL, mean of runs, at 10 µM
quantityKind: activity (%)
Respond numerically; units are % and should not be typed.

The cases that follow already have their activity on record.
CCC(=O)c1ccc(/C=C/c2nc3ccccc3n2C)o1 | 54.8
Cc1cc(C)c2sc(N(CCCN(C)C)C(=O)c3ccc(S(=O)(=O)N(C)C4CCCCC4)cc3)nc2c1 | 4.92
Nc1c(N(CCC2=CCCCC2)C(=O)COc2ccc(F)cc2)c(=O)[nH]c(=O)n1Cc1ccccc1 | 23
c1ccc(CNc2nc(NCC3CC3)nc3cc(-c4ccccc4)sc23)cc1 | 16.7
N/C(=N\OC(=O)c1ccccc1)C(C(=O)NOC(=O)c1ccccc1)C1CCCCC1 (stereo not given) | 94.9
O=C(Nc1nnc(-c2ccccc2)o1)NC1CCCCC1 | 55.4

activity in this record for Nc1nc(=S)c2ncn(C3OC(CO)C(O)C3O)c2[nH]1 (stereo not given) : 6.78

activity in this record for `C=CCNC(=S)N/N=C/c1ccc(C(F)(F)F)cc1` : 8.22

activity in this record for `O=C(N/N=C/c1cccc(NC(=O)c2ccc(Cl)cc2)c1)c1ccc(O)cc1` : 42

activity in this record for Cc1cccc(N2CCN(C(=S)Nc3ccc4nc(N5CCN(C)CC5)cc(C)c4c3)CC2C)c1 (stereo not given) : 98
